Numbers sourced from the supplement of paper PMC10567573.

test: protein stability index of a GFP-peptide fusion (GPS, HEK-293T) (PSI 1-6); higher = more stable; details: treatment: MLN4924 1 uM, 8 h; c terminus: native;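 further: 24-mer peptide tiles fused after GFP, lentivirally expressed, FACS-sorted into six equal bins by GFP/DsRed ratio, decoded by Illumina sequencing, PSI is the read-weighted mean bin number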

{"sequence-code": "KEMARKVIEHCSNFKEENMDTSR [ZER1]", "protein stability index": 4.16}
{"sequence-code": "KAPAKKANSTTTAGRDHFLTCGV [BRD3]", "protein stability index": 2.74}
{"sequence-code": "PMMKLKRHFVAQKYKKQIDHMYH [ACSBG2]", "protein stability index": 2.75}
{"sequence-code": "SLSVFTEPNRHFYREMQSFSEDI [FBXO33]", "protein stability index": 3.33}
{"sequence-code": "PALKIYEYHVKPLQTKHLKNNSS [SAMD13]", "protein stability index": 3.04}
{"sequence-code": "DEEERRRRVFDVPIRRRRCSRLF [FBXO3]", "protein stability index": 3.73}
{"sequence-code": "SQKYKEGKYIIELNHMIKDNGWD [YPEL3]", "protein stability index": 2.97}
{"sequence-code": "KAVQYEEKNPCRTLCCFCCPCLK [STX11]", "protein stability index": 3.7}
{"sequence-code": "RQAVAWLVAMHKAAKLLYESRDQ [ZFYVE21]", "protein stability index": 2.28}
{"sequence-code": "EELLYDYGDRSKASIEAHPWLKH [KMT5A]", "protein stability index": 4.83}
{"sequence-code": "GGPFPLPYTAPGGYLDVGSKPMY [TBX6]", "protein stability index": 3.43}
{"sequence-code": "YMIHEPEPHILLFRRPLPKKPKK [CKS1B]", "protein stability index": 2.99}
{"sequence-code": "VATWAIFVHRVGQPSIGGKLSPL [CTBP1-DT]", "protein stability index": 2.92}

###

assay: protein stability index of a GFP-peptide fusion (GPS, HEK-293T) (PSI 1-6); higher = more stable; settings: treatment: MLN4924 1 uM, 8 h; c terminus: a fixed tail appended
Recorded protein stability index by entry

{"sequence-code": "LRKGYLFMYNLVQFLGFSWIFVNL [HACD3]", "protein stability index": 3.22}
{"sequence-code": "WIFVNLTVRFCILGKESFYDTFHT [HACD3]", "protein stability index": 3.05}
{"sequence-code": "CRALRDPALDSLAYEYEREGLYEQ [TRADD]", "protein stability index": 3.63}
{"sequence-code": "CHSESGKSRLVQLPPVAVRSLQDL [PCMTD2]", "protein stability index": 3.28}
{"sequence-code": "SWEEGMKVFEELLLDADWSINAGS [CRY1]", "protein stability index": 2.89}
{"sequence-code": "CGRRGIKVWSLTGQVAEDRFPESH [TLE6]", "protein stability index": 3.11}
{"sequence-code": "EEYPGITAEDSNDIYILPSDNSGQ [BCL2L13]", "protein stability index": 5.14}
{"sequence-code": "VDPANDTFDIDPMVVTDCIQVDPP [MCOLN1]", "protein stability index": 5.22}
{"sequence-code": "NVPSSSLPAQPNRKPGMSSTARRS [CHMP4C]", "protein stability index": 4.99}
{"sequence-code": "ECGHNFCKACITRWWEDLERDFPC [TRIM39]", "protein stability index": 3.01}
{"sequence-code": "VLYPDGQAQMIHPKPADFRNPGPG [INTS4]", "protein stability index": 3.67}
{"sequence-code": "YQLLATHVPTVWAIDQYRVCQEVL [RHOBTB1]", "protein stability index": 2.38}
{"sequence-code": "GFWRIDPQYAERLLSGAFKKRRLP [FOXJ1]", "protein stability index": 2.4}
{"sequence-code": "AHELGHSLGLSHSTDIGALMYPSY [MMP1]", "protein stability index": 2.9}
{"sequence-code": "KVEVDMEKIAAEIAQAEEQARKRQ [SMARCE1]", "protein stability index": 4.78}
{"sequence-code": "SALPLAPNHLGGGAVVLGAESHAS [STX5]", "protein stability index": 4.32}
{"sequence-code": "EGNALQGPILQKDYVQLENQWETP [ZNF449]", "protein stability index": 4.68}
{"sequence-code": "GLAKCNGLSHSHDLSMDGLFGTIA [RIPK4]", "protein stability index": 2.38}
{"sequence-code": "ENRTLQVLRAEHRGFQEENKALWE [CBY2]", "protein stability index": 4.38}
{"sequence-code": "MGNSHCVPQAPRRLRASFSRKPSL [PLEKHN1]", "protein stability index": 3.69}
{"sequence-code": "QPADVFPRLFKEWNITKLSIEYDS [CRY1]", "protein stability index": 2.92}
{"sequence-code": "PPHRRRLLFACSPPPASQPVVKAL [CDC25A]", "protein stability index": 2.98}
{"sequence-code": "QEDITKSLLVTELGSSRTPETVRM [IMPA1]", "protein stability index": 4.49}
{"sequence-code": "TNKMKSPETKQRKLSPLRLSVSNN [KMT2E]", "protein stability index": 4.41}
{"sequence-code": "QPPTTTVARSGTPAVENKQQIGDA [PLK2]", "protein stability index": 5.37}
{"sequence-code": "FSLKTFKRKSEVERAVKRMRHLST [MATN2]", "protein stability index": 2.82}
{"sequence-code": "FQIAANLSMERYALVFGVNTFIAL [SLC19A2]", "protein stability index": 3.09}
{"sequence-code": "CLDTIDKSTMDAISAEGFTDIDID [BTBD1]", "protein stability index": 4.82}
{"sequence-code": "HQGEEEGPLDIWAVVKPGNTKEKI [FBXO34]", "protein stability index": 4.76}
{"sequence-code": "SWTAVTPQQTWASPAEVVDLTLDE [C18orf25]", "protein stability index": 4.73}
{"sequence-code": "PNRFLRGHRPPPARSGHRCVADNT [KLHDC10]", "protein stability index": 4.32}
{"sequence-code": "SGTPQAGTPSPSRSRDSNSGPEEP [RTN2]", "protein stability index": 5.48}
{"sequence-code": "VSGSPVTQNHAASALPTGSPKRGT [FBF1]", "protein stability index": 5.22}
{"sequence-code": "PLLHKDSASLEVVKKDHVALQVPR [CBY2]", "protein stability index": 4.3}
{"sequence-code": "LRAVEQAMGHSQDRLTTFQENQAR [LRRC45]", "protein stability index": 4.34}
{"sequence-code": "VSKELRMYDEKAHEWKSLAPMDAP [KLHL13]", "protein stability index": 4.04}
{"sequence-code": "MPRHNYHKVAPLVQSLCAKHGIEY [FADS1]", "protein stability index": 2.5}
{"sequence-code": "EHACTVRNLARSQSVKMKDKLKID [TAF7L]", "protein stability index": 4.81}
{"sequence-code": "MLDHHPVAITVEVKQEEDIKPPPP [RAD54B]", "protein stability index": 5.19}
{"sequence-code": "RAVIAWMEKIPFVLGGNLQGGELV [CPXM2]", "protein stability index": 2.36}
{"sequence-code": "FEQLPDDVAISANIADIEEKRGFT [NCF4]", "protein stability index": 5.05}
{"sequence-code": "TVEPRLLVADLLYWKDTRTSGVVF [RTN2]", "protein stability index": 2.98}
{"sequence-code": "ASIQNHVRKREAPAPEAESKQTEK [EFHC1]", "protein stability index": 5.32}
{"sequence-code": "DFGLAIEVQGDQQAWFGFAGTPGY [CAMK2B]", "protein stability index": 2.15}
{"sequence-code": "IKPSNIFISRTSIPNAASEEGDED [WEE1]", "protein stability index": 4.97}
{"sequence-code": "QPKEPQLTCDSAQKCHSIGETDEV [ZSCAN9]", "protein stability index": 5.57}
{"sequence-code": "QNVDVNVHPTKHEVHFLHEESILE [MLH1]", "protein stability index": 4.75}
{"sequence-code": "GGQESSGLNLGKKISVPRDVMLEE [MYOZ1]", "protein stability index": 5.1}
{"sequence-code": "KASNPDLKLWEIGKIIGGMWRDLT [SMARCE1]", "protein stability index": 2.55}
{"sequence-code": "GERPRSEEDNELNLPNLAAAYSSI [GCH1]", "protein stability index": 4.75}
{"sequence-code": "STKGSRSNLSTRDASILTEMPTQP [NETO1]", "protein stability index": 4.71}
{"sequence-code": "RKTHVLLGRSHDTVQEAATSRRAR [MFSD9]", "protein stability index": 4.73}
{"sequence-code": "EVKIEEPVSMEMDNHMSDKDESCY [INTS3]", "protein stability index": 5.37}

###

Listing of recorded protein stability index by entry.
assay: protein stability index of a GFP-peptide fusion (GPS, HEK-293T) (PSI 1-6); higher = more stable; settings: treatment: MLN4924 1 uM, 8 h; c terminus: native
attribute-measured: protein stability index

{"sequence-code": "ISLMYGGSKRKSSFFSSPPYFED [SLA]", "reported-value": 2.27}
{"sequence-code": "ESLSAIEAELEKVAHQLQALRRG [CHGA]", "reported-value": 3}
{"sequence-code": "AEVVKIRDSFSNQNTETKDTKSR [DLC1]", "reported-value": 3.47}
{"sequence-code": "EDTKPKPTKRKRKGSSAVGSDSD [INTS3]", "reported-value": 5.4}
{"sequence-code": "GAGPPEPLRICPLHISVKEELDG [TRIM35]", "reported-value": 4.56}
{"sequence-code": "VAEPLAGPACVTVILPSCVPYNK [KLHL14]", "reported-value": 2.36}
{"sequence-code": "SIKNSLKVAAISESPVAEKSAST [PTGFR]", "reported-value": 4.27}
{"sequence-code": "TAHASAQSLAGGSRRTKEEELQC [TPD52L1]", "reported-value": 4.88}
